Kindly find below IC50 information for Protein mono-ADP-ribosyltransferase PARP12 (Homo sapiens) taken from the literature.

Reference set, count: 4
COc1ccc(C2(CNC(=O)c3ccc(NC(=O)c4ccco4)cc3Cl)CCOCC2)cc1
> 10 µM
CC(C)(O)c1ccc(-c2nc3c(F)cc(F)cc3c(=O)[nH]2)cc1
> 10 µM
Cc1cccc2c(=O)[nH]c(CCC(=O)Nc3ccc(C(=O)Nc4cccc5cccnc45)cc3)nc12
> 100 µM
COc1ccc(C(=O)Nc2ccc(C(=O)N(c3ccncn3)c3ccccc3Cl)cc2)cc1
> 10 µM

// switching to the query molecule
Item under review: `NC(=O)c1ccc(OCC2CCC2)cc1` . Reported IC50?
> 10 µM
